Form: system (IGF1R tyrosine kinase (Homo sapiens, UniProt P08069)), quantity (pIC50), values below.
pIC50: −log10 of the molar value.

Study these solved cases before continuing.
{"Molecule": "Cc1ccc(OC[C@H](O)CNc2cc[nH]c(=O)c2-c2nc3cc4c(cc3[nH]2)C(=O)N(C2CCN(C)CC2)C4=O)cc1Cl", "Study target": "IGF1R tyrosine kinase (Homo sapiens, UniProt P08069)", "Measured attribute": "pIC50", "Measurement": "> 6.30"}
{"Molecule": "CN1CCC(N2C(=O)c3cc4nc(-c5c(NC[C@@H](O)COc6cccc(Cl)c6)ccnc5O)[nH]c4cc3C2=O)CC1", "Study target": "IGF1R tyrosine kinase (Homo sapiens, UniProt P08069)", "Measured attribute": "pIC50", "Measurement": "5.30 to 6.30"}

Prompt: What pIC50 value was documented for this molecule, COc1ccccc1OCC(O)CNc1cc[nH]c(=O)c1-c1nc2cc3c(cc2[nH]1)C(=O)N(C1CCN(C)CC1)C3=O (stereo not drawn) ?
Response: 5.30 to 6.30

Prompt: Would you mind doing `CN1CCC(N2C(=O)c3cc4nc(-c5c(N[C@@H](CO)Cc6ccccc6)cc[nH]c5=O)[nH]c4cc3C2=O)CC1` as well?
Response: 5.30 to 6.30

Prompt: Moving on to `CN1CCC(N2C(=O)c3cc4nc(-c5c(N[C@@H](CO)Cc6c[nH]cn6)cc[nH]c5=O)[nH]c4cc3C2=O)CC1`
Response: 5.30 to 6.30

Prompt: // query: `CCc1cc2c(cc1OC[C@H](O)CNc1cc[nH]c(=O)c1-c1nc3cc4c(cc3[nH]1)C(=O)N(C1CCN(C)CC1)C4)OCO2`
Response: > 6.30

###

What follows is a collection of pIC50 values obtained with Jak2 (Homo sapiens).
Sequence (O60674 849-1124 limits assumed, species assumed): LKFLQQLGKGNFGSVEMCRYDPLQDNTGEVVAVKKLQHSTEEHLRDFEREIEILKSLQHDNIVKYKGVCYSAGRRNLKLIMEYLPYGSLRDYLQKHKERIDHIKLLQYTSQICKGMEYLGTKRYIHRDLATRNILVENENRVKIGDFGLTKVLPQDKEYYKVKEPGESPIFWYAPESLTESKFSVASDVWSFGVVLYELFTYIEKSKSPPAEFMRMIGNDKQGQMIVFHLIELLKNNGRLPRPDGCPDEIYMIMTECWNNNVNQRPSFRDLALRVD
pIC50: −log10 of the molar value.

Answered cases to consult:
{"Smiles string": "O=C1c2cc3nc(-c4c(NC[C@@H](O)c5cccc(Cl)c5)cc[nH]c4=O)[nH]c3cc2C(=O)N1CCCN1CCCC1", "pIC50": "5.30 to 6.30"}
{"Smiles string": "CN1CCC(N2Cc3cc4[nH]c(-c5c(NC[C@@H](O)COc6cc(F)c(F)cc6Br)cc[nH]c5=O)nc4cc3C2=O)CC1", "pIC50": "> 6.30"}
{"Smiles string": "O=C1c2cc3nc(-c4c(NC[C@@H](O)c5cccc(Cl)c5)cc[nH]c4=O)[nH]c3cc2C(=O)N1[C@H]1CN2CCC1CC2", "pIC50": "5.30 to 6.30"}

Prompt: If you can, please state the reported pIC50 value of `Cc1ccc(OC[C@H](O)CNc2cc[nH]c(=O)c2-c2nc3cc4c(cc3[nH]2)CN(C2CCN(C)CC2)C4=O)c(C)c1` .
Response: > 6.30

Prompt: Next record, please: `COc1ccc2c(ccn2C[C@H](O)CNc2cc[nH]c(=O)c2-c2nc3cc4c(cc3[nH]2)CN(C2CCN(C)CC2)C4=O)c1`
Response: 5.30 to 6.30

Prompt: Would you mind doing `CCc1cc(C)ccc1OC[C@H](O)CNc1cc[nH]c(=O)c1-c1nc2cc3c(cc2[nH]1)CN(C1CCN(C)CC1)C3=O` as well?
Response: > 6.30
